These entries and their values trace back to patent US20240024488A1.

Reported DC50 is given for each of the following compounds.
STUDY TARGET: HiBit-BRM fusion protein (Homo sapiens)
Construct: expressed in transfected cells
Sequence (P51531 whole entry, the tested form may be a part): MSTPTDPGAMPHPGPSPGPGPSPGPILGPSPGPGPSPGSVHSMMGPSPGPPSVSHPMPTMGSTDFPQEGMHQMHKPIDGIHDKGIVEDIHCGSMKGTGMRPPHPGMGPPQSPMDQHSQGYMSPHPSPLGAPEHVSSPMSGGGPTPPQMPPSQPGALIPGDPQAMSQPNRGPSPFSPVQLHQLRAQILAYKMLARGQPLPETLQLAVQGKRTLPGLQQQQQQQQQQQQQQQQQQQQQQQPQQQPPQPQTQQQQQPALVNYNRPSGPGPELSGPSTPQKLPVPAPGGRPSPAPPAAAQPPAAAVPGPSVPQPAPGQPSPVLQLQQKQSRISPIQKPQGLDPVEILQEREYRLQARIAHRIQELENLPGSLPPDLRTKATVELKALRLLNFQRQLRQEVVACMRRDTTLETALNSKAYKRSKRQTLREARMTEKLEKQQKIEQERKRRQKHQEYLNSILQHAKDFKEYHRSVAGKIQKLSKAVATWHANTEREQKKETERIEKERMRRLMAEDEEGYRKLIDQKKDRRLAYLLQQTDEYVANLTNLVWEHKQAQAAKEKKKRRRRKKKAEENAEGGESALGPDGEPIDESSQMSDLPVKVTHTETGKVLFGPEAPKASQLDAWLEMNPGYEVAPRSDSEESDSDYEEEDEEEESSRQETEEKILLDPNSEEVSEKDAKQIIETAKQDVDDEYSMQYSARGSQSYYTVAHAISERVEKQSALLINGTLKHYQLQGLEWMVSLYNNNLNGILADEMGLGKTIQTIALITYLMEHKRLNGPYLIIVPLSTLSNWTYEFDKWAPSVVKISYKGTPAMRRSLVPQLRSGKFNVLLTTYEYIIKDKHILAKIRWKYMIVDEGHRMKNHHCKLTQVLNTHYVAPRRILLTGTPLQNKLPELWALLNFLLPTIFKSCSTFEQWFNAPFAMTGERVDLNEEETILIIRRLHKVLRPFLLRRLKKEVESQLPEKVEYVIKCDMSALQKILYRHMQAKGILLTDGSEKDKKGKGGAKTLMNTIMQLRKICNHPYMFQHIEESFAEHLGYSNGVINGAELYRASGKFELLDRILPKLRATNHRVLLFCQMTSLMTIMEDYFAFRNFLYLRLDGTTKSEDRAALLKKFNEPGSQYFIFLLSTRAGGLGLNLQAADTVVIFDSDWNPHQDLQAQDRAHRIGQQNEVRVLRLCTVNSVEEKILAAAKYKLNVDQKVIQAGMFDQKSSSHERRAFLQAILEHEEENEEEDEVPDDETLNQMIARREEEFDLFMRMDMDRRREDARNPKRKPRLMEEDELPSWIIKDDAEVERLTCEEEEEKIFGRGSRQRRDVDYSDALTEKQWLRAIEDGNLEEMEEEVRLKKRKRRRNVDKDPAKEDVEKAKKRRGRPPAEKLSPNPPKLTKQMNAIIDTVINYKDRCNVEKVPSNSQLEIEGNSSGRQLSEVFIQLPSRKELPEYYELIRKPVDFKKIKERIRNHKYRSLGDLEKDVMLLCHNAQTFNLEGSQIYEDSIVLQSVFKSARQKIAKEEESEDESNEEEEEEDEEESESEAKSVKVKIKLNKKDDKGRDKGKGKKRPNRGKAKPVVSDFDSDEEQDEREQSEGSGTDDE
PROCEDURE TEXT: HiBiT-BRM cell-based degradation assay (Nano-Glo HiBiT Lytic Detection, 24 h)
SETTINGS: HeLa cell line expressing HiBiT-BRM, read-out: BRM HiBit Degradation IC50

Answered cases to consult:
Cc1ncsc1-c1ccc([C@H](C)NC(=O)[C@@H]2C[C@@H](O)CN2C(=O)[C@@H](c2cc(OCCN3CCC(F)(c4cc5cc(-c6ccccc6O)nnc5[nH]4)CC3)no2)C(C)C)cc1 (racemic) ... > 100 nM
Cc1ncsc1-c1ccc(CNC(=O)[C@@H]2C[C@@H](O)CN2C(=O)[C@@H](NC(=O)CCCCCCCCCCC(=O)N2CC(c3cc4cc(-c5ccccc5O)nnc4[nH]3)C2)C(C)(C)C)cc1 ... > 100 nM

Read the next record carefully.
Field DC50 (HiBit-BRM fusion protein (Homo sapiens)), entry Cc1ncsc1-c1ccc([C@H](C)NC(=O)[C@@H]2C[C@@H](O)CN2C(=O)[C@@H](c2cc(N3CCN(C(=O)CN4CC(c5cc6cc(-c7ccccc7O)nnc6[nH]5)C4)CC3)no2)C(C)C)cc1 (racemic) : > 10 nM
